test_target: human TYK2 (JH2domain-pseudokinase) (Homo sapiens (Human), UniProt P29597)
Sequence (P29597 556-888): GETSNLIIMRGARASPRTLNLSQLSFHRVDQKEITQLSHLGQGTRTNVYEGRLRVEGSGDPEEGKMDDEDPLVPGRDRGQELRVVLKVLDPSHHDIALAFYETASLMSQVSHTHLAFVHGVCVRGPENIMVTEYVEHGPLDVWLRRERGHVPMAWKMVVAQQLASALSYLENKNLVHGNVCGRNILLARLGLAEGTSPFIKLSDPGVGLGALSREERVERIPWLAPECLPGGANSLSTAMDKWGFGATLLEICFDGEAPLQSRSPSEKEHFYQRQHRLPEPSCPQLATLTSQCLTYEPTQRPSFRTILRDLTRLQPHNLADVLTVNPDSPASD
method_summary: TYK2 JH2 Domain Binding Assay (KINOMEscan)
So I've got a bunch of molecules here, and I need their Kd values.

Value of Kd reported for the molecule CNc1cc(Nc2cccn(C3CCN(C)CC3)c2=O)nc2c(C(=O)NCC3(CO)CC3)cnn12 is 200 to 1000 pM

GET /value?item= CNc1cc(Nc2cccn(C3CCCN(C)C3)c2=O)nc2c(C(=O)NC3CC3)cnn12 (centres unmarked) &field=Kd returns 200 to 1000 pM

The value of Kd measured for the molecule CNc1cc(Nc2cccnc2OC)nc2c(C(=O)N[C@H]3CC[C@@]3(C)O)cnn12 [I-1015] turned out to be 1000 to 10000 pM

Given item CNc1cc(Nc2cccn(-c3ccc(N4CCOCC4)cc3)c2=O)nc2c(C(N)=O)cnn12 , the value recorded as its Kd is < 200 pM

Kd recorded for this molecule, CNc1cc(Nc2cccnc2OC2CC2)nc2c(C(=O)N[C@H]3COC[C@H]3O)cnn12 [I-547] , is < 200 pM

Reported Kd of CNc1cc(Nc2cccn(-c3ccnc(C)n3)c2=O)nc2c(C(N)=O)cnn12 : 200 to 1000 pM

// Kd value for CNc1cc(-c2nn(C3CCOC3)c3ncccc23)nc2c(C(=O)N[C@H]3C[C@H]3F)cnn12 (some centres unmarked) : < 200 pM

The reported value for CNc1cc(Nc2cc(F)cn(-c3cc(C)n(C)n3)c2=O)nc2c(C(=O)N[C@H]3C[C@H]3F)cnn12 in terms of Kd is < 200 pM

----------
test_target: human TYK2 (JH2domain-pseudokinase) (Homo sapiens (Human))
method_summary: TYK2 JH2 Domain Binding Assay (KINOMEscan)
pKd: −log10 of the molar value.
reported_endpoint: pKd

The reported human TYK2 (JH2domain-pseudokinase) (Homo sapiens (Human)) pKd of CNc1cc(Nc2cccn([C@H]3CCCC[C@H]3OC)c2=O)nc2c(C(=O)N[C@@H]3CC[C@H]3OC)cnn12 is < 8.00

Let me check: CNc1cc(Nc2cccn(C(C)C)c2=O)nc2c(C(=O)N[C@@H]3CCCC[C@@]3(C)O)cnn12 , system human TYK2 (JH2domain-pseudokinase) (Homo sapiens (Human)), measured pKd is 9.00 to 9.70

Item CNc1cc(Nc2cccn([C@@H]3CCC[C@@H]3OC)c2=O)nc2c(C(=O)N[C@@H]3C[C@@H]3F)cnn12 [I-507] was tested on human TYK2 (JH2domain-pseudokinase) (Homo sapiens (Human)); the reported pKd is 9.00 to 9.70

pKd on human TYK2 (JH2domain-pseudokinase) (Homo sapiens (Human)) for CNc1cc(Nc2cccn(-c3cn(C)nc3F)c2=O)nc2c(C(=O)N[C@H]3C[C@H]3F)cnn12 is > 9.70

Record CNc1cc(Nc2cccn(C3CCOCC3)c2=O)nc2c(C(=O)N[C@H]3CC[C@H]3O)cnn12 [I-527] ; system human TYK2 (JH2domain-pseudokinase) (Homo sapiens (Human)); pKd = 9.00 to 9.70

// compound CNc1cc(Nc2cccn([C@@H]3C[C@H]3F)c2=O)nc2c(C(=O)N[C@H]3CC[C@H]3O)cnn12 , assay human TYK2 (JH2domain-pseudokinase) (Homo sapiens (Human)), pKd value: > 9.70

Sample CNc1cc(Nc2cc(Cl)cn(-c3cnn(C4CC4)c3C)c2=O)nc2c(C(=O)NC3CC3)cnn12 , system: human TYK2 (JH2domain-pseudokinase) (Homo sapiens (Human)). Its pKd is 9.00 to 9.70
